# MEASURED TARGET: aggrecanase-1 (Homo sapiens, UniProt O75173)
# Sequence (O75173 213-837, species assumed): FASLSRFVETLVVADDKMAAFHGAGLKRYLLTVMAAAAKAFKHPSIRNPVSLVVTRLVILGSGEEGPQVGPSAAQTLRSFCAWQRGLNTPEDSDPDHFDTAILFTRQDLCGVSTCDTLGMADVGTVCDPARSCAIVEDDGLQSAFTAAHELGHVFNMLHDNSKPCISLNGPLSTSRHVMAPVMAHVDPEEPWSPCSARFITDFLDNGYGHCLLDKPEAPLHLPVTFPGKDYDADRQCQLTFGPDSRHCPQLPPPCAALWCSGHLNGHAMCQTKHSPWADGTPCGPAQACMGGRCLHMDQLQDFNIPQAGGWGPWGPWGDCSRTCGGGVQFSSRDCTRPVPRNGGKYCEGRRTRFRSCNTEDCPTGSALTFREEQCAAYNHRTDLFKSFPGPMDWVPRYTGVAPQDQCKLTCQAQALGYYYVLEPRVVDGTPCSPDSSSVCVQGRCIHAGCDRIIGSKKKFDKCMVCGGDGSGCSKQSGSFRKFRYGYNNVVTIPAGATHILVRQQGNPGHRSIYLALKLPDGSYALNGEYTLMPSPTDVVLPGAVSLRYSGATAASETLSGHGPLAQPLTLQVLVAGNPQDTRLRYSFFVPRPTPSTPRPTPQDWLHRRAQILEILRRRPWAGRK
# MEASUREMENT NOTES: Aggrecanase-1 inhibitory action (Particle Assay, GAG release from aggrecan-containing polyacrylamide particles)
# Assay type: biochemical
# MEASUREMENT CONTEXT: Experimental Example 1; read-out: IC50 AG1
MEASUREMENT TYPE: IC50

MOLECULE	MEASURED TARGET	IC50
CC1(c2ccccc2Cl)CC1(NS(=O)(=O)c1ccc(-c2cc(C(F)(F)F)on2)s1)C(=O)O (centres unmarked) [Example 2-616]	aggrecanase-1 (Homo sapiens, UniProt O75173)	< 100 nM
CC(C)c1cc(-c2ccc(S(=O)(=O)N[C@@]3(C(=O)O)C(C)[C@@H]3c3ccccc3)s2)no1 (some centres unmarked) [Example 2-408]	aggrecanase-1 (Homo sapiens, UniProt O75173)	< 100 nM
NC(=O)Cc1ccc([C@@H]2C[C@]2(NS(=O)(=O)c2ccc(-c3cc(C(F)(F)F)on3)s2)C(=O)O)cc1 [Example 2-292]	aggrecanase-1 (Homo sapiens, UniProt O75173)	< 100 nM
O=C(NO)C1(NS(=O)(=O)c2ccc(OCc3ccc(Cl)cc3Cl)cc2)C2CCc3ccccc3C21 (centres unmarked) [Example 2-360]	aggrecanase-1 (Homo sapiens, UniProt O75173)	< 100 nM
CN(C)C(=O)OCCC1(c2ccccc2)CC1(NS(=O)(=O)c1ccc(-c2ccc(Cl)cc2)s1)C(=O)O (centres unmarked) [Example 2-303]	aggrecanase-1 (Homo sapiens, UniProt O75173)	< 100 nM
O=C(NO)C1(NS(=O)(=O)c2ccc(-c3cc(C(F)(F)F)on3)s2)C2Cc3ccccc3C21 (centres unmarked) [Example 2-495]	aggrecanase-1 (Homo sapiens, UniProt O75173)	< 100 nM

Quick one: IC50 of O=C(O)C1(NS(=O)(=O)c2ccc(-c3cc(C(F)(F)F)on3)s2)CC1(CN1CCOCC1)c1ccccc1 (centres unmarked) [Example 2-322] ? < 100 nM

Any idea what IC50 was measured for CN1CCN(C(=O)Cc2ccc([C@@H]3C[C@]3(NS(=O)(=O)c3ccc(-c4cc(C(F)(F)F)on4)s3)C(=O)O)cc2)CC1 [Example 2-294] ? < 100 nM

Request the reported IC50 associated with CC1[C@@H](c2ccccc2)[C@@]1(NS(=O)(=O)c1ccc(-c2cc(C(F)(F)F)on2)s1)C(=O)O (some centres unmarked) [Example 2-288] < 100 nM

Query: IC50; subject: C[C@]1(c2ccccc2)C[C@@]1(NS(=O)(=O)c1ccc(-c2cccc(OCCO)c2)s1)C(=O)O [Example 2-575] ≥ 1000 nM

Param item = CC1[C@H](c2ccccc2)[C@]1(NS(=O)(=O)c1ccc(-c2ccc3c(c2)OCO3)s1)C(=O)O (some centres unmarked) [Example 2-470] ; retrieve measured IC50. < 100 nM

Give its IC50 value. Item: Cc1cc(-c2ccc(S(=O)(=O)N[C@@]3(C(=O)O)C(C)[C@@H]3c3ccccc3)s2)no1 (some centres unmarked) [Example 2-374] < 100 nM

Entry Cc1cc(-c2ccc(S(=O)(=O)NC3(C(=O)O)C4CCCc5ccccc5C43)s2)no1 (centres unmarked) [Example 2-375] : reported IC50 = ? < 100 nM

Given the molecule Cc1cc(N2CCN(S(=O)(=O)N[C@@]3(C(=O)O)C(C)[C@@H]3c3ccccc3)CC2=O)no1 (some centres unmarked) [Example 2-476] , what is its reported IC50? ≥ 1000 nM

Value lookup for IC50; key = CC1[C@H](c2ccccc2)[C@]1(NS(=O)(=O)c1ccc(-n2ccc(C(F)(F)F)n2)s1)C(=O)O (some centres unmarked) [Example 2-514] < 1000 nM

Reported IC50, molecule C[C@]1(c2ccccc2)C[C@@]1(NS(=O)(=O)c1ccc(-c2ccc(Cl)cc2Cl)s1)C(=O)O [Example 2-566] : ____ < 1000 nM

Sample O=C(O)C1(NS(=O)(=O)c2ccc(-c3ccc(Cl)cc3)s2)CC1(CSCCO)c1ccccc1 (centres unmarked) [Example 2-345] — what was its IC50? < 100 nM
